Provide the reported TGI of each item.
- System: SK-OV-3 ovarian
- experimental details: NCI tumour cell line growth inhibition, 48 h

TGI reading for O=C(NN1C(=O)CSC1c1cccc(F)c1)c1ccncc1 (stereo not drawn) : > 100 µM

Lookup result for COc1ccc(F)c(F)c1C(=O)c1cnc(NC2CCN(S(C)(=O)=O)CC2)nc1N ; measured TGI: > 100 µM

TGI reading for O=C(O)CCCCCCCCC(=O)O : > 500 µM

* * *

- Tested on: MDA-MB-435
- experimental details: NCI tumour cell line growth inhibition, 48 h
test readout: TGI

// compound CCOC(=O)C1=CC(C)(C(=O)OCC)Nc2c(nc(N)[nH]c2=O)N1 (stereo unspecified) , assay MDA-MB-435, TGI value: > 10 µM

MDA-MB-435 TGI of COC(=O)N1N=C(c2ccccc2)C1c1ccccc1 (stereo unspecified) is > 100 µM

Result for O=C1c2ccccc2-c2c1c1c(NCCCO)nc3ccccc3c1n2Cc1ccccc1 , tested on MDA-MB-435, TGI: > 100 µM

Entry CCn1c(-c2nonc2N)nc2ccncc21 ; assay system MDA-MB-435; TGI recorded at > 25 µM

Lab entry: MDA-MB-435 assay, compound COC(=O)C1(O)C(c2ccccc2)=NC2(C)CCCC21 (stereo unspecified) , TGI = > 100 µM

Tested on MDA-MB-435, the item CCOC(=O)C1CCC(=O)N1C(=O)c1ccccc1Cl (stereo unspecified) showed TGI equal to > 100 µM

Form field TGI for item OCc1ccc(N2CCOCC2)cc1Cl on MDA-MB-435: > 100 µM

Note to self: TGI of c1ccc([P+](CCCCCCCC[P+](c2ccccc2)(c2ccccc2)c2ccccc2)(c2ccccc2)c2ccccc2)cc1 with MDA-MB-435 was > 68.4 µM

Reported MDA-MB-435 TGI for item O=C(CC(=O)Nc1ccccc1)NNC(c1cc(N=Nc2ccc(Br)cc2)ccc1O)P(O)O (stereo unspecified) was > 10 µM

Considering C=CC1=C(C)C2=NC1=CC1=NC(=CC3=C(C)C4=C(O)[C@H](C(=O)OC)C(=C5NC(=C2)[C@@H](C)[C@@H]5CCC(=O)O)C4=N3)C(CC)=C1C , its TGI with MDA-MB-435 was recorded as > 46.5 µM

Measured on MDA-MB-435, CCOC(=O)c1sc2ncnc(N)c2c1C has a documented TGI of > 100 µM

Field TGI (system: MDA-MB-435) for entry O=S1(=O)c2cnccc2NC(=NCc2ccccc2)N1c1ccccc1 = > 100 µM

For the compound O=[N+]([O-])c1ccc(-c2cc3c(Nc4ccc(Cl)c(C(F)(F)F)c4)ncnc3s2)cc1 , the measured TGI on MDA-MB-435 was > 100 µM

Form field, TGI with MDA-MB-435, item CN1N=C(c2ccncc2)OC1c1ccccc1F (stereo unspecified) : > 100 µM

Here COc1ccc(N2C(=O)C3c4[nH]c5ccccc5c4C4CCCCCCCCCC4C3C2=O)cc1 (stereo unspecified) was tested on MDA-MB-435, and its TGI came to > 10 µM

MDA-MB-435 assay, compound COc1c(O)c(OC)c2oc(-c3ccc(O)cc3)c(OC)c(=O)c2c1O , recorded TGI = > 100 µM

* * *

What TGI was measured for each of the following?
- System: SK-MEL-2 melanoma
- experimental details: NCI tumour cell line growth inhibition, 48 h

Test item CCOC(=O)C1=CC(C)(C(=O)OCC)Nc2c(nc(N)[nH]c2=O)N1 (centres undefined) ; SK-MEL-2 melanoma; reported TGI was > 10 µM

Item CC1(C)N=C2C(=O)c3c([nH]c4ccccc34)[C@]3(C)CCC1CC23 (some centres undefined) ; assay system SK-MEL-2 melanoma; TGI reported as > 6.25 µM

// returns TGI for COc1cc([N+](=O)[O-])c(OC)c2c(Nc3ccc(S(=O)(=O)O)c4cc(S(=O)(=O)O)cc(S(=O)(=O)O)c34)cc(C)nc12 with SK-MEL-2 melanoma; value = > 100 µM

Let me check: Cc1ccc(C)c(N2C(=O)C(=O)C(c3nc4ccccc4s3)C(=Nc3cccc4c(=O)[nH][nH]c(=O)c34)C2=O)c1 (centres undefined) , system SK-MEL-2 melanoma, measured TGI is > 100 µM

Data provenance is PubChem BioAssay (NCI).
